Attribution: paper PMC10397247

# test-target: T1, 4H2330-AA
# T1 chain: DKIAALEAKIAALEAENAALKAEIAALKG
# test-protocol: two-hybrid library CCmax;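 further: natural log of median RNA to DNA barcode read ratio; higher means stronger binding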
# measurement-context: mean of both orientations
Measured interaction score of individual entries

DENAALKAEIAALKAKNAALEAEIAALKG [4H1650-AA] = -1.54
DKIAALEAEIAALKAKNAALEAEIAALKG [4H2162-AA] = -1.04

With those in mind, consider the next binder.
// interaction score value for DENAALKAEIAALKAEIAALKAKNAALEG [4H1615-AA] : -1.4
